The origin of these recorded values is patent EP0908457B1.

tested on: Echinochloa oryzoides (Ard.) Fritsch.; assay: Preemergence weed control under flooded paddy conditions, ECHORC (Watergrass (Calif.)); type: in vivo; settings: Rate 0.1250 kg/ha; preemergence, flooded paddy; rated three to four weeks after treatment
just bin them by ECHORC herbicidal effect rating: lower range = under 2, middle range = from 2 up to 7, upper range = 7 and over

Form: Item = COC(=O)C(C)Oc1c(-c2nsc3ccc(-n4c(=O)cc(C(F)(F)F)n(C)c4=O)cc23)ccc(C)c1C (centres unmarked) [Example 275] ; Class = ?
middle range

Form: Item = C#CCOC(=O)COc1c(-c2nsc3ccc(-n4c(=O)cc(C(F)(F)F)n(C)c4=O)cc23)ccc(C)c1C [Example 280] ; Class = ?
upper range

Form: Item = CCOc1nc(C(F)(F)F)cc(=O)n1-c1ccc2snc(-c3cc(C)ccc3OCC(=O)OC)c2c1 [Example 246] ; Class = ?
upper range

Form: Item = CC(C)=CCOCc1nsc2ccc(-n3c(=O)cc(C(F)(F)F)n(C)c3=O)cc12 [Example 210] ; Class = ?
upper range

Form: Item = Cn1c(C(F)(F)F)cc(=O)n(-c2ccc3snc(C(Br)C#N)c3c2)c1=O (centres unmarked) [Example 264] ; Class = ?
lower range

Form: Item = Cn1c(C(F)(F)F)cc(=O)n(-c2ccc3snc(CO)c3c2)c1=O [Example 225] ; Class = ?
middle range

Form: Item = Cc1nsc2ccc(-n3c(=O)cc(C(F)(F)F)n(CC#N)c3=O)cc12 [Example 213] ; Class = ?
lower range

Form: Item = Cn1c(C(F)(F)F)cc(=O)n(-c2ccc3snc(/C=N/O)c3c2)c1=O [Example 278] ; Class = ?
upper range

Form: Item = C=CCCOCc1nsc2ccc(-n3c(=O)cc(C(F)(F)F)n(C)c3=O)cc12 [Example 223] ; Class = ?
upper range

Form: Item = Cn1c(C(F)(F)F)cc(=O)n(-c2ccc3snc(-c4ccccc4OCC(=O)NS(C)(=O)=O)c3c2)c1=O [Example 268] ; Class = ?
middle range

Form: Item = COP(=O)(Cc1nsc2ccc(-n3c(=O)cc(C(F)(F)F)n(C)c3=O)cc12)OC [Example 262] ; Class = ?
lower range

Form: Item = C#CCn1c(C(F)(F)F)cc(=O)n(-c2ccc3snc(C)c3c2)c1=O [Example 217] ; Class = ?
lower range

Form: Item = CCOc1ccc2sc(S(=O)(=O)NC(=O)COc3ccc(C)cc3-c3nsc4ccc(-n5c(=O)cc(C(F)(F)F)n(C)c5=O)cc34)nc2c1 [Example 289] ; Class = ?
middle range

* * *

system: Cyperus serotinus, Rottb.; experiment: Preemergence weed control under flooded paddy conditions, CYPSE (Flatsedge); type: in vivo; conditions: 0.1250 kg/ha, preemergence, rated three to four weeks after treatment
ENDPOINT_LABEL: CYPSE herbicidal rating
Please give only the number in your answer, with no unit.

Look at this compound and give its reported CYPSE herbicidal rating. Cn1c(C(F)(F)F)cc(=O)n(-c2ccc3snc(COC(=O)c4cccnc4Cl)c3c2)c1=O [Example 480]
3.0

Look at this compound and give its reported CYPSE herbicidal rating. COC(=O)COc1cc(Cl)c(C)cc1-c1nsc2ccc(-n3c(=O)cc(C(F)(F)F)n(C)c3=O)cc12 [Example 493]
9.0

Look at this compound and give its reported CYPSE herbicidal rating. Cn1c(C(F)(F)F)cc(=O)n(-c2ccc3snc(C(C)(C)C(N)=O)c3c2)c1=O [Example 509]
0.0

Look at this compound and give its reported CYPSE herbicidal rating. C=CCOc1c(I)cc(C)cc1-c1nsc2ccc(-n3c(=O)cc(C(F)(F)F)n(C)c3=O)cc12 [Example 505]
0.0

Look at this compound and give its reported CYPSE herbicidal rating. Cn1c(C(F)(F)F)cc(=O)n(-c2ccc3snc(COC(=O)c4ccno4)c3c2)c1=O [Example 475]
5.0

Look at this compound and give its reported CYPSE herbicidal rating. COC(=O)COc1cc(C)c(I)cc1-c1nsc2ccc(-n3c(=O)cc(C(F)(F)F)n(C)c3=O)cc12 [Example 469]
9.0

Look at this compound and give its reported CYPSE herbicidal rating. Cn1c(C(F)(F)F)cc(=O)n(-c2ccc3snc(COC(=O)c4ccc([N+](=O)[O-])o4)c3c2)c1=O [Example 476]
3.0

Look at this compound and give its reported CYPSE herbicidal rating. CC(C)c1nsc2ccc(-n3c(=O)cc(C(F)(F)F)n(C)c3=O)cc12 [Example 499]
9.0

Look at this compound and give its reported CYPSE herbicidal rating. CC(C)OC(=O)C(C)(C)c1nsc2ccc(-n3c(=O)cc(C(F)(F)F)n(C)c3=O)cc12 [Example 489]
9.0
